Known TGI of a selection of molecules
Tested on: HOP-92 NSCLC
Assay: NCI tumour cell line growth inhibition, 48 h

These solved cases illustrate the format of a correct answer.
1. C/C(CC(=O)Nc1cccc(Cl)c1C)=N\N=C(N)N    > 100 µM
2. Cn1cc(NC(=O)c2cc(NC(=O)CCCCCCCC(=O)Nc3cc(C(=O)Nc4cc(C(=O)NCCC(=N)N)n(C)c4)n(C)c3)cn2C)cc1C(=O)NCCC(=N)N    > 100 µM

From here, focus on the item given below.
Query: Fill in: TGI of c1csc(C(NC2=NCCO2)C2CC2)c1 (stereo not drawn) is ___
Result: > 100 µM
